Details: in cyclopentanone, 318.25 K
ENDPOINT_LABEL: solubility (mole fraction)
Answer using only a numeral; do not append any unit.

The recorded solubility (mole fraction) for entry "CC(C)C(N)=O" equals 0.174

---

Conditions: in methanol, 283.95 K
ENDPOINT_LABEL: solubility (mole fraction)

For this compound ( "CC(C)C(N)=O" ), measured solubility (mole fraction) is 0.112

---

Settings: in acetone, 273.15 K
ENDPOINT_LABEL: solubility (mole fraction)
No unit in the answer, only the number.

Measured solubility (mole fraction), "CC(C)C(N)=O" : 0.00931

---

Conditions: in ethanol, 303.45 K
ENDPOINT_LABEL: solubility (mole fraction)

Data point: "CC(C)C(N)=O" ; solubility (mole fraction) = 0.139

---

Settings: in ethanol, 273.15 K
ENDPOINT_LABEL: solubility (mole fraction)
Give your answer as a number; write no unit.

Lab note: "CC(C)C(N)=O" gave solubility (mole fraction) of 0.0474

---

Details: in THF, 284.15 K
ENDPOINT_LABEL: solubility (mole fraction)
Please give the numeric answer without any surrounding text.

The compound listed as "CC(C)C(N)=O" shows solubility (mole fraction) equal to 0.0585

---

Conditions: in acetone, 293.85 K
ENDPOINT_LABEL: solubility (mole fraction)
Answer with a number only.

# solubility (mole fraction) of "CC(C)C(N)=O" = 0.0317

---

Settings: in cyclopentanone, 273.15 K
ENDPOINT_LABEL: solubility (mole fraction)
Reply: number alone, nothing else.

Kindly note the recorded solubility (mole fraction) for "CC(C)C(N)=O" , which is 0.0441

---

Conditions: in cyclohexanone, 273.15 K
ENDPOINT_LABEL: solubility (mole fraction)
Provide a numeric answer; units are not to be included.

Sure, the documented solubility (mole fraction) for "CC(C)C(N)=O" is 0.0267

---

Conditions: in 2-butanone, 284.15 K
ENDPOINT_LABEL: solubility (mole fraction)
Just the number, please, no unit attached.

Entry under test: "CC(C)C(N)=O" . Its solubility (mole fraction) was 0.0497

---

Settings: in ethanol, 324.15 K
ENDPOINT_LABEL: solubility (mole fraction)
// return a plain number; no unit text

Lookup result for "CC(C)C(N)=O" ; measured solubility (mole fraction): 0.26

---

Conditions: in 2-butanone, 273.15 K
ENDPOINT_LABEL: solubility (mole fraction)

Form: compound = "CC(C)C(N)=O" ; solubility (mole fraction) = 0.0397

---

Conditions: in isobutanol, 303.75 K
ENDPOINT_LABEL: solubility (mole fraction)
Number only, please.

Memo: "CC(C)C(N)=O" , reported solubility (mole fraction): 0.129

---

Conditions: in cyclohexanone, 289.15 K
ENDPOINT_LABEL: solubility (mole fraction)
Field format: numeric only.

Recorded solubility (mole fraction) (molecule "CC(C)C(N)=O" ): 0.0473

---

Settings: in 2-butanone, 323.95 K
ENDPOINT_LABEL: solubility (mole fraction)
Give the figure only, with no unit attached.

Query "CC(C)C(N)=O" yields solubility (mole fraction) of 0.0988

---

Conditions: in n-propanol, 313.25 K
ENDPOINT_LABEL: solubility (mole fraction)
Write no unit; give the number alone.

Query "CC(C)C(N)=O" yields solubility (mole fraction) of 0.198

---

Details: in 2-butanone, 293.75 K
ENDPOINT_LABEL: solubility (mole fraction)
Lab note: jot the number down without any unit.

Looking up "CC(C)C(N)=O" , I see its solubility (mole fraction) listed as 0.0597

---

Settings: in cyclohexanone, 323.95 K
ENDPOINT_LABEL: solubility (mole fraction)
No unit in the answer, please; the number alone is enough.

For this molecule ( "CC(C)C(N)=O" ), measured solubility (mole fraction) is 0.135

---

Conditions: in chloroform, 289.15 K
ENDPOINT_LABEL: solubility (mole fraction)
Hey, just send me the number, nothing else.

Summary for this compound, "CC(C)C(N)=O" : solubility (mole fraction) is 0.0282

---

Conditions: in acetone, 289.15 K
ENDPOINT_LABEL: solubility (mole fraction)
Returns: the value as a bare number; no unit string appended.

Item: "CC(C)C(N)=O" | solubility (mole fraction): 0.0244

---

Settings: in isobutanol, 273.15 K
ENDPOINT_LABEL: solubility (mole fraction)
// print number alone

The molecule listed as "CC(C)C(N)=O" shows solubility (mole fraction) equal to 0.0521

---

Details: in THF, 318.25 K
ENDPOINT_LABEL: solubility (mole fraction)
Number only, no unit.

Lab note: "CC(C)C(N)=O" gave solubility (mole fraction) of 0.126

---

Settings: in methanol, 299.15 K
ENDPOINT_LABEL: solubility (mole fraction)
Form rule: numeric answer, no unit written next to it.

Query "CC(C)C(N)=O" yields solubility (mole fraction) of 0.161

---

Conditions: in acetonitrile, 319.15 K
ENDPOINT_LABEL: solubility (mole fraction)
No unit in the answer, please; the number alone is enough.

Data point: "CC(C)C(N)=O" ; solubility (mole fraction) = 0.0961

---

Details: in isobutanol, 313.65 K
ENDPOINT_LABEL: solubility (mole fraction)
Form field (numeric): enter value without unit.

// field: solubility (mole fraction); key: "CC(C)C(N)=O" ; value = 0.166

---

Settings: in ethanol, 279.15 K
ENDPOINT_LABEL: solubility (mole fraction)
Provide a numeric answer; units are not to be included.

The measured solubility (mole fraction) associated with "CC(C)C(N)=O" reads 0.0599

---

Conditions: in acetone, 324.15 K
ENDPOINT_LABEL: solubility (mole fraction)
Please give the numeric answer without any surrounding text.

Record "CC(C)C(N)=O" . Reported solubility (mole fraction): 0.143

---

Conditions: in acetone, 299.15 K
ENDPOINT_LABEL: solubility (mole fraction)

Entry "CC(C)C(N)=O" ; solubility (mole fraction) = 0.0422

---

Details: in cyclohexanone, 318.25 K
ENDPOINT_LABEL: solubility (mole fraction)

Per the record, "CC(C)C(N)=O" has solubility (mole fraction) of 0.115

---

Settings: in methanol, 324.15 K
ENDPOINT_LABEL: solubility (mole fraction)
I'd appreciate a reply containing only the number, no unit.

Item: "CC(C)C(N)=O" | solubility (mole fraction): 0.274

---

Settings: in isobutanol, 293.75 K
ENDPOINT_LABEL: solubility (mole fraction)

For "CC(C)C(N)=O" the compound record lists solubility (mole fraction) as 0.0976

---

Settings: in ethanol, 289.15 K
ENDPOINT_LABEL: solubility (mole fraction)

Note to self: solubility (mole fraction) recorded for "CC(C)C(N)=O" was 0.086

---

Conditions: in acetone, 279.15 K
ENDPOINT_LABEL: solubility (mole fraction)
Please reply with the value in numeric form only.

The reported solubility (mole fraction) of the molecule "CC(C)C(N)=O" was 0.0135

---

Details: in cyclopentanone, 313.65 K
ENDPOINT_LABEL: solubility (mole fraction)
Please reply with the number alone, leaving off any unit.

What the record says about "CC(C)C(N)=O" : solubility (mole fraction) is 0.154

---

Conditions: in ethanol, 313.25 K
ENDPOINT_LABEL: solubility (mole fraction)

Entry "CC(C)C(N)=O" — recorded solubility (mole fraction) = 0.189

---

Settings: in acetone, 303.45 K
ENDPOINT_LABEL: solubility (mole fraction)
Give a plain numeric answer without units written out.

Noted for "CC(C)C(N)=O" : its solubility (mole fraction) reads 0.0528

---

Conditions: in ethyl formate, 308.55 K
ENDPOINT_LABEL: solubility (mole fraction)
Give the value as a plain number.

Sample "CC(C)C(N)=O" ; solubility (mole fraction) observed: 0.0432

---

Details: in isopropanol, 303.45 K
ENDPOINT_LABEL: solubility (mole fraction)
Could you keep your reply to the number by itself?

The molecule listed as "CC(C)C(N)=O" shows solubility (mole fraction) equal to 0.109

---

Details: in 2-butanone, 279.15 K
ENDPOINT_LABEL: solubility (mole fraction)

Record summary for "CC(C)C(N)=O" : reported solubility (mole fraction) = 0.045

---

Conditions: in chloroform, 284.15 K
ENDPOINT_LABEL: solubility (mole fraction)
Answer with the value's number alone.

Notebook: "CC(C)C(N)=O" , solubility (mole fraction) read as 0.0222

---

Conditions: in ethyl formate, 303.75 K
ENDPOINT_LABEL: solubility (mole fraction)
Lab note: write the figure by itself, no unit.

"CC(C)C(N)=O" yielded solubility (mole fraction) of 0.0371

---

Conditions: in acetonitrile, 273.15 K
ENDPOINT_LABEL: solubility (mole fraction)
Form: value (number only, do not type unit).

Measured solubility (mole fraction) of "CC(C)C(N)=O" : 0.0122

---

Conditions: in acetone, 283.95 K
ENDPOINT_LABEL: solubility (mole fraction)

Reported solubility (mole fraction) ( "CC(C)C(N)=O" ) = 0.018
